Tested on: HOP-92 NSCLC
Test: NCI-60 one-dose screen, 48 h
Settings: 10 µM unless noted
The panel holds about 83,000 compounds, 20% with a hit somewhere; the sample as a whole holds those more often. Active and inactive are the calls of the source. The calls were made as follows: active = growth percent below 10; inactive = the rest.
Use one of these outcomes when replying: Y (active), N (inactive)

Reference set (5 entries):
CCOP(=O)(OCC)C1CP(=O)(c2ccccc2)CC(C)=C1Cl (centres undefined)
N
Cc1ccc(-n2nc3c(c(C#N)c2=O)CC(c2ccccc2Cl)C([N+](=O)[O-])=C3O)cc1 (centres undefined)
N
O=C(CSc1nccc(Nc2ccc(S(=O)(=O)Nc3nccs3)cc2)n1)c1ccc(F)cc1
N
O=c1c2c3c(sc2n2c(-c4cn(-c5ccccc5)nc4-c4ccc(Cl)cc4)nnc2n1Cc1ccccc1)CCCC3
N
CC1(c2ccccc2)NC(=O)N(NC(=O)CSc2nc(-c3cccs3)nc3ccccc23)C1=O (centres undefined)
N

-- ask Test call for this compound, please: `COc1ccc2[nH]c(O)c(/C=c3/cc4c(c(-c5cc(OC)c(OC)c(OC)c5)n3)=Nc3ccccc3-4)c2c1`
-- reply N

-- ask Test call for this compound, please: `Cc1ccc2c(c1)Sc1c(ccc3ccccc13)N2`
-- reply N
